Values were extracted from patent US9073927B2.

- target-of-assay: PI3K (p110α/p85α) (Homo sapiens, UniProt P42336)
- Construct: purchased Carna Biosciences 07CBS-0402A
- Sequence (P42336 whole entry): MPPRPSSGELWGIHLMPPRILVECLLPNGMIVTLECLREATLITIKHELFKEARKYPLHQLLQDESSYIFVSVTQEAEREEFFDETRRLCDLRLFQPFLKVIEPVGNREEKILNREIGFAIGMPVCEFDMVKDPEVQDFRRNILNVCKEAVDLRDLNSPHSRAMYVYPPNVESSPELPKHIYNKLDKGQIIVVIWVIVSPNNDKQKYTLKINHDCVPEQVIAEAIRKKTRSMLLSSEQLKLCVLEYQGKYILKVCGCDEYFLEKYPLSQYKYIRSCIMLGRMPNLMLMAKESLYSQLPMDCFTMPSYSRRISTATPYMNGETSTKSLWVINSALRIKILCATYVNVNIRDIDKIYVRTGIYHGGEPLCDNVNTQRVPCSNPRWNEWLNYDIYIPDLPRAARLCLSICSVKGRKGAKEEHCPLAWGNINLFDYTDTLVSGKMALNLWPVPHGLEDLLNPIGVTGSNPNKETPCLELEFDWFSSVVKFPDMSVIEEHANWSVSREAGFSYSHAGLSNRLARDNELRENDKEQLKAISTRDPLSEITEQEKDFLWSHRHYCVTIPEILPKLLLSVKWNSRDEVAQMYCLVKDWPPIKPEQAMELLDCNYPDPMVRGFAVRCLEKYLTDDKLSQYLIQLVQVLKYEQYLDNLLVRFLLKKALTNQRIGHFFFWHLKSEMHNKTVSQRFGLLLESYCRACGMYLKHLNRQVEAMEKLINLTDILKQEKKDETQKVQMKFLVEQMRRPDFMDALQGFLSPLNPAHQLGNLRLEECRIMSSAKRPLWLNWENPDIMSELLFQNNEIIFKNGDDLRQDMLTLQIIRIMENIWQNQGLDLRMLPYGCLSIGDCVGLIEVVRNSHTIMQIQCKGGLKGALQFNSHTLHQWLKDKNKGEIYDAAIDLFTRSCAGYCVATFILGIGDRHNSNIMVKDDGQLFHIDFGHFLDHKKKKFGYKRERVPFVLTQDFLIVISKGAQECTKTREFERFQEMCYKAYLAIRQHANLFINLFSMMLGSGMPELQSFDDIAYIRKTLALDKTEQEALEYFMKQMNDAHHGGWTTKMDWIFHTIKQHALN
- Sequence (P27986 whole entry partner): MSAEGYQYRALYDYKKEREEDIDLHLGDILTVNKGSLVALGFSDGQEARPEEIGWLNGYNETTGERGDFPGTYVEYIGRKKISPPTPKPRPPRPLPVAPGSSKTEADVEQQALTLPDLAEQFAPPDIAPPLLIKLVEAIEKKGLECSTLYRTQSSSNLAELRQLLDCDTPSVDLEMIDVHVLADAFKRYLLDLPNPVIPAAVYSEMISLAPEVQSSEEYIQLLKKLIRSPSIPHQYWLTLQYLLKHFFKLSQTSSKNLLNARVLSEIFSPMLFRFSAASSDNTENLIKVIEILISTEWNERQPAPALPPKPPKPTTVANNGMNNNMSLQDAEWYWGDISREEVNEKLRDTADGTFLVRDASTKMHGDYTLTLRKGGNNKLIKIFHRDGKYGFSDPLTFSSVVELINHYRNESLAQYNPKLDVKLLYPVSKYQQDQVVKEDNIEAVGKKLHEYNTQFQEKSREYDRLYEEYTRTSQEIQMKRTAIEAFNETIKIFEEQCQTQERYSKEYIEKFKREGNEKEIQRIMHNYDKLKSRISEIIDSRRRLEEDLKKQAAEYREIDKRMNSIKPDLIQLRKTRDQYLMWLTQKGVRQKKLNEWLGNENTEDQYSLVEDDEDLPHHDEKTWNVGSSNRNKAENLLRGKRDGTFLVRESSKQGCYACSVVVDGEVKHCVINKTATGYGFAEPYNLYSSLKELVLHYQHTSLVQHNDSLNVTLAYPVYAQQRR
- assay-details: PI3K activity assay (ADP Hunter Plus)
- Type: biochemical
- condition-notes: Table 4; read-out: PI3Kα
pIC50: −log10 of the molar value.
readout-label: pIC50

Answered examples (4):
molecule	target-of-assay	pIC50
OCc1cc2c(N3CCOCC3)nc(-c3cccc(O)c3)cn2n1 [Compound 3-2]	PI3K (p110α/p85α) (Homo sapiens, UniProt P42336)	6.76
Cc1nnc2c(N3CCOCC3)nc(-c3cnc(N)nc3)cn12 [Compound 3-5]	PI3K (p110α/p85α) (Homo sapiens, UniProt P42336)	6.78
Oc1cccc(-c2cn3cncc3c(N3CCOCC3)n2)c1 [Compound 3-11]	PI3K (p110α/p85α) (Homo sapiens, UniProt P42336)	6.50
CS(=O)(=O)N1CCN(Cc2cn3nc(-c4cnc(N)nc4)nc(N4CCOCC4)c3n2)CC1 [Compound 3-9]	PI3K (p110α/p85α) (Homo sapiens, UniProt P42336)	8.52

(a) Cc1nnc2c(N3CCOCC3)nc(-c3cccc(O)c3)cn12 [Compound 3-6]
(b) COc1cccc(-c2cn3cncc3c(N3CCOCC3)n2)c1 [Compound 3-12]
(c) CS(=O)(=O)N1CCN(Cc2cc3c(N4CCOCC4)nc(-c4cnc(N)nc4)cn3n2)CC1 [Compound 3-10]
# sort list by recorded pIC50, greatest to least # list labels per requested ordering
c, a, b
